Biological target: soluble guanylate cyclase (sGC), α1 and β1 subunits of guanylate cyclase expressed in Sf9 cells (Homo sapiens, UniProt Q02108+Q02153)
Construct: made in house; host or cells: Sf9 insect cells (baculovirus co-infection)
Sequence (Q02108 1-690): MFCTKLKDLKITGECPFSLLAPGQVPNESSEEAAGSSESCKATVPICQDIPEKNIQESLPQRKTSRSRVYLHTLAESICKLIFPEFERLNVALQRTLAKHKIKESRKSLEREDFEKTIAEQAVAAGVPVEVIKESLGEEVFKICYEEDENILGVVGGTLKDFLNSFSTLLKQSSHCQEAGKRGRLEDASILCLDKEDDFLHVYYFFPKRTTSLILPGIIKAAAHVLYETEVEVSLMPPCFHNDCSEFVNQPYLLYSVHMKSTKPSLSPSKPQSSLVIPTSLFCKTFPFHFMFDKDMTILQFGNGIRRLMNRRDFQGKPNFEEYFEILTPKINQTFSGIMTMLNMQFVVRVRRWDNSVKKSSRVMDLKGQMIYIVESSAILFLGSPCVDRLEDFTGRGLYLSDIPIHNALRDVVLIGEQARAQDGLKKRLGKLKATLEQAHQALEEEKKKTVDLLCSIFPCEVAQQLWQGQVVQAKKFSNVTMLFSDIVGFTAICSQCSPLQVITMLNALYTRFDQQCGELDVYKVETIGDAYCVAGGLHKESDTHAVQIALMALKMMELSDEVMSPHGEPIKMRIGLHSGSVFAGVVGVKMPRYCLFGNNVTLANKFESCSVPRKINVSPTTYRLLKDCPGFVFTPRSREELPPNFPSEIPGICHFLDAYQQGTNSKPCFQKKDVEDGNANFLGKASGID
Sequence (Q02153 1-619): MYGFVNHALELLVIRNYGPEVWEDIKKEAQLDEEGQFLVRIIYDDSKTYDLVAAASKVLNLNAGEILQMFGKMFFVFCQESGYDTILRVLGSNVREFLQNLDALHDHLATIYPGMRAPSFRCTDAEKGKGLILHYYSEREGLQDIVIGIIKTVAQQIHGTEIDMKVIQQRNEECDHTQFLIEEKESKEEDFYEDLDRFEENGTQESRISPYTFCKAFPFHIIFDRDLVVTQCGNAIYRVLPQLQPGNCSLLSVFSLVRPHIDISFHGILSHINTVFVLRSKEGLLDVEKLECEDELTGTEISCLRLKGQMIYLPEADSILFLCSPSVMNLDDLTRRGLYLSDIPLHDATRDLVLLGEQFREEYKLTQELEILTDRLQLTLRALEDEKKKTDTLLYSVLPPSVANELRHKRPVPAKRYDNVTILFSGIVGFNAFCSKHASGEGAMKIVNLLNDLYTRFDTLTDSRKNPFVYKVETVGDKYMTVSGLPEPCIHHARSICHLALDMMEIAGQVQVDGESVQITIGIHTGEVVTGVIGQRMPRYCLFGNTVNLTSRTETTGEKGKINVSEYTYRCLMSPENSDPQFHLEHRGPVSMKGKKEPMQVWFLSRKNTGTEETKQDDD
Experiment: Guanylate cyclase assay (formation of cyclic GMP from GTP)
Type: biochemical
Details: (activity of compound at 100 μM with 1 μM SNP)−(activity of compound at 100 μM)/(activity of SNP at 1 μM)−(basal activity of sGC)
Protocol: Sf9 cells were cultured in Sf-90011 medium supplemented with 10% (v/v) fetal calf serum at 28° C. to give a count of 6×10^5 cells/ml. […] Guanylate cyclase activity was measured by the formation of cyclic GMP from GTP in a total volume of 100 μl. […] Compounds of the present invention were tested at 100 μM with and without 1 μM sodium nitro prusside (SNP). […] Mean basal efficacy, in Table 1, was expressed as a percentage of 100 μM YC-1 (without SNP). […]
outcome_measure: Mean activation at 100 μM

compound	Mean activation at 100 μM
CCNC(=O)/C=C/c1ccccc1Sc1ccc(Cl)cc1	10.5

(P) CC(C)CCSc1ccccc1/C=C/C(=O)NCCCCO
(Q) CC(O)CCNC(=O)/C=C/c1ccccc1Sc1ccc(Cl)cc1 (centres unmarked)
(R) CC(CC(=O)NCCc1ccncc1)c1ccccc1Sc1ccc(Cl)cc1 (centres unmarked)
(S) COc1cccc(Sc2ccccc2/C=C/C(=O)NC2CCCCC2O)c1 (centres unmarked)
Task field, ranking: reported Mean activation at 100 μM, descending order. Hello, could you send the labels back in the order asked? Thank you.
Q, P, S, R
(Q: 19.0, P: 7.8, S: 4.6, R: 2.8)
